Data provenance is PubChem BioAssay (NCI).

# System: SK-OV-3 ovarian
# protocol notes: NCI tumour cell line growth inhibition, 48 h
Below: a set of entries, each annotated with reported TGI.

Some solved cases for reference:
O=C(O)/C=C/c1cnc[nH]1
> 500 µM
CC1CC(C)/C(=N/NC(N)=O)C(C(O)CC2CCC(=O)NC2=O)C1 (configuration not stated)
> 100 µM
Cc1ccc(S(=O)C[C@@]2(C(F)F)NC(=O)NC2=O)cc1 (some centres not stated)
> 100 µM

Value lookup for TGI; key = "O=C(Nc1ccc(Cl)cc1)c1ccc([N+](=O)[O-])o1"
7.27 µM

Value lookup for TGI; key = "CC(C)(C)c1cn2cccc(C(=O)N3CCN(CC(=O)Nc4ccc(Cl)cc4C(=O)c4ccccc4Cl)CC3)c2n1"
> 100 µM

Value lookup for TGI; key = "NC(N)=N/N=C(/c1ccccc1)c1ccc(Cl)cc1"
> 100 µM

Value lookup for TGI; key = C=CCC12CC(=O)C=C1CCC1(C2)OCCO1 (configuration not stated)
> 100 µM

Value lookup for TGI; key = O/N=C1/CCCCCC1NO (configuration not stated)
> 100 µM

Value lookup for TGI; key = "CCOc1ccc(N=Nc2ccc3oc(=O)c(/C(C)=N\NC(=O)CC(=O)Nc4ccc(Cl)cc4)cc3c2)cc1"
41.8 µM

====

# System: SNB-75 CNS
# protocol notes: NCI tumour cell line growth inhibition, 48 h
measurement kind: TGI

Some solved cases for reference:
CCCCCCCCCCCCCC(=O)OC(/C=C/C(C)C)C(O)C(O)C(OC)C(=O)NC1CCCCNC1=O (stereo not drawn)
9.46 µM
COc1cc(C(=O)/C=C/c2c(-c3ccc(F)cc3)nc3ncccn23)cc(OC)c1OC
9.37 µM
COc1ccc(N2CCN(Cc3c(C(C)=O)[n+](=O)c4ccccc4n3[O-])CC2)cc1
> 100 µM
Cc1ccc(NC(=O)COC(=O)c2cccc3c(=O)c4ccccc4[nH]c23)cc1
94.9 µM
CCCC(=O)/C=C/S/C=C/C(=O)CCC
83.6 µM
COc1ccccc1-c1nc2ccccc2c(=O)[nH]1
> 100 µM
CC(C)(C)c1cn2cccc(C(=O)N3CCN(CC(=O)Nc4ccc(Cl)cc4C(=O)c4ccccc4Cl)CC3)c2n1
90.2 µM
O=c1c[n+](-c2ccccc2)[nH]o1
> 100 µM

// fetch SNB-75 CNS TGI for COc1ccc(CC2NCCc3cc(OC)c(OC)cc32)cc1 (stereo not drawn)
> 100 µM

// fetch SNB-75 CNS TGI for "Cc1ccc([N+](=O)[O-])cc1NC(=O)C(=O)Cc1cc(=O)oc2cc(O)ccc12"
> 100 µM

// fetch SNB-75 CNS TGI for "O[C@@H]1CCCN1Cc1cc2cc3c(cc2c2cc(OCc4ccccc4)ccc12)OCO3"
19.7 µM

// fetch SNB-75 CNS TGI for "CCOP(=O)(OCC)/C(C#N)=C/c1ccc[nH]1"
> 100 µM

// fetch SNB-75 CNS TGI for "CCCCCCCCCCCCCCCCOC(=O)c1c(C)[nH]c(/C=C2\N=C(c3ccc[nH]3)C=C2OC)c1C"
7.17 µM

// fetch SNB-75 CNS TGI for "CNC(=O)c1n[nH]n(Cc2ccccc2)c1=S"
> 100 µM

// fetch SNB-75 CNS TGI for "O=C(O)c1cncc(C(=O)O)c1"
> 100 µM

// fetch SNB-75 CNS TGI for CC(C)=CC(O)C/C(C)=C/CC/C(C)=C/CCC1(C)C(CCCO)/C(=C(/C)C=O)CCC1(C)O (stereo not drawn)
> 100 µM

// fetch SNB-75 CNS TGI for "O=C(Nc1cccc([N+](=O)[O-])c1)c1ccc2ccccc2c1O"
> 100 µM

// fetch SNB-75 CNS TGI for Cc1ccc(S(=O)C[C@@]2(C(F)F)NC(=O)NC2=O)cc1 (stereo partly drawn)
> 100 µM

// fetch SNB-75 CNS TGI for "CC(=O)c1c(O)ccc2c(C)c(C(=O)O)oc12"
> 100 µM

// fetch SNB-75 CNS TGI for "O=c1oc2ccc(F)cc2c(=O)n1-c1ccc(Cl)cc1F"
2.65 µM

// fetch SNB-75 CNS TGI for "Cc1cc(C)nc(NS(=O)(=O)c2ccc(NNC(=O)c3cccc4c(NNc5ccc(S(=O)(=O)Nc6nc(C)cc(C)n6)cc5)c5ccccc5nc34)cc2)n1"
52.3 µM

// fetch SNB-75 CNS TGI for Cc1nn(-c2ccccc2)c2c1C(c1cc3ccccc3nc1Cl)NC(=S)N2 (stereo not drawn)
> 100 µM

// fetch SNB-75 CNS TGI for "N#CCCN(CCC#N)c1ccc(/C=N\c2nc(-c3ccccc3)cs2)cc1"
> 100 µM

// fetch SNB-75 CNS TGI for CC(=O)O[C@H]1[C@@H](OC2CCCC2(c2ccccc2)c2ccccc2)O[N+]([O-])=C[C@@]12COCc1cc3c(cc12)OCO3 (stereo partly drawn)
34.6 µM

// fetch SNB-75 CNS TGI for O=C(NCC(=O)N1CC[C@H](NC2CCC(O)(c3ccc(-c4ncccn4)cn3)CC2)C1)c1cccc(C(F)(F)F)c1 (stereo partly drawn)
> 100 µM

====

Below: a set of entries, each annotated with reported log10 of TGI.
# System: HOP-92 NSCLC
# protocol notes: NCI tumour cell line growth inhibition, 48 h
The common logarithm of TGI in µM is what is listed.

Some solved cases for reference:
CC(=O)Nc1ccc(S(=O)(=O)[N-]C2C(=O)c3ccccc3C(=O)C2[n+]2ccccc2)cc1 (stereo not given)
1.53
Oc1ccc2c3c1OC1C(=NN=C4CCC5(O)C6Cc7ccc(O)c8c7C5(CCN6CC5CC5)C4O8)CCC4(O)C(C2)N(CC2CC2)CCC314 (stereo not given)
1.73
CC(C)/C(Cl)=N\OC(=O)Nc1ccc(F)c([N+](=O)[O-])c1
0.68
COCC(=O)OC1CCn2c1nc1c2C(=O)C(C)=C(NC(C)=O)C1=N (stereo not given)
0.96
C=C(C)[C@@H]1CC[C@]2(C(=O)O)CC[C@]3(C)[C@H](CC[C@@H]4[C@@]5(C)C[C@@H](CC#Cc6ccc(Br)cc6)C(=O)C(C)(C)[C@@H]5CC[C@]43C)[C@@H]12
1.56
COc1ccc(NC(=O)COC(=O)c2cccc3c(=O)c4ccccc4[nH]c23)cc1
1.77
COc1cc(CNC(=O)[C@H](Cc2ccc(O)cn2)NC(C)=O)cc(OC)c1
1.88
Cn1cnc([N+](=O)[O-])c1Sc1nc2cccnc2s1
1.53

// fetch HOP-92 NSCLC log10 of TGI for "Oc1ccc2ccccc2c1C(c1ccc(Cl)cc1)c1c(O)ccc2ccccc12"
0.69

// fetch HOP-92 NSCLC log10 of TGI for "COc1ccc2c[n+](C)c3c4cc(OC)c(OC)cc4ccc3c2c1"
1.55

// fetch HOP-92 NSCLC log10 of TGI for "CCOC(=O)N[C@H]1CCc2cc(O)c(OC)c(OC)c2-c2ccc(SC)c(=O)cc21"
-1.10

====

# System: MDA-N
# protocol notes: NCI tumour cell line growth inhibition, 48 h
measurement kind: TGI (µM)
# value in µM; strip the unit string

Some solved cases for reference:
CC(=O)Nc1ccc(S(=O)(=O)[N-]C2C(=O)c3ccccc3C(=O)C2[n+]2ccccc2)cc1 (configuration not stated)
33
Oc1ccc2ccccc2c1C(c1ccc(Cl)cc1)c1c(O)ccc2ccccc12
12.2
O=C1c2ccccc2C(=O)c2c1oc(=O)c1ccccc21
5.7

Value lookup for TGI; key = "COc1cc(-c2c3c([nH]c(=O)c2C#N)-c2cc([N+](=O)[O-])ccc2CCC3)cc(OC)c1OC"
55

Value lookup for TGI; key = "N#CC(C#N)=Cc1ccc(C=C2SC3=C(SCCS3)S2)s1"
3.03

Value lookup for TGI; key = "COc1cc(/C=C/c2sc3ccccc3[n+]2C)ccc1N(C)C"
22.2

Value lookup for TGI; key = "Cc1cc(C)nc(NS(=O)(=O)c2ccc(NNC(=O)c3cccc4c(NNc5ccc(S(=O)(=O)Nc6nc(C)cc(C)n6)cc5)c5ccccc5nc34)cc2)n1"
43.1

Value lookup for TGI; key = "CCCC(=O)Nc1cc([N+](=O)[O-])c([N+](=O)[O-])cc1OC"
30.6

====

# Tested on: HL-60(TB) leukemia
# protocol notes: NCI tumour cell line growth inhibition, 48 h; in the data active means GI50 below about 0.43 µM; inactive means the rest
Outcome field: choose from TRUE = active, FALSE = inactive

Some solved entries appear below for comparison.
COc1cc(Nc2ncc3c(C)nc(-c4cccc(Oc5ccccc5)c4)n3n2)cc(OC)c1OC
FALSE
O=C1/C(=C/c2ccc(Cl)cc2)CN(Cc2cn(CCNc3ccnc4cc(Cl)ccc34)nn2)C/C1=C\c1ccc(Cl)cc1
TRUE
N#Cc1c(NC(=O)c2cccc3ccccc23)sc2c1CCCC2
TRUE

Please state the recorded outcome for this molecule: "CCCCCCCCCCCCCCCCOC(=O)c1c(C)[nH]c(/C=C2\N=C(c3ccc[nH]3)C=C2OC)c1C"
TRUE

Please state the recorded outcome for this molecule: "COc1cc2c(cc1OCCCCCn1c(-c3ccco3)nc3ccccc31)N=C[C@@H]1CCCN1C2=O"
TRUE
